target of assay: Butyrylcholinesterase (Equus caballus, UniProt Q9N1N9)
Sequence (Q9N1N9 whole entry): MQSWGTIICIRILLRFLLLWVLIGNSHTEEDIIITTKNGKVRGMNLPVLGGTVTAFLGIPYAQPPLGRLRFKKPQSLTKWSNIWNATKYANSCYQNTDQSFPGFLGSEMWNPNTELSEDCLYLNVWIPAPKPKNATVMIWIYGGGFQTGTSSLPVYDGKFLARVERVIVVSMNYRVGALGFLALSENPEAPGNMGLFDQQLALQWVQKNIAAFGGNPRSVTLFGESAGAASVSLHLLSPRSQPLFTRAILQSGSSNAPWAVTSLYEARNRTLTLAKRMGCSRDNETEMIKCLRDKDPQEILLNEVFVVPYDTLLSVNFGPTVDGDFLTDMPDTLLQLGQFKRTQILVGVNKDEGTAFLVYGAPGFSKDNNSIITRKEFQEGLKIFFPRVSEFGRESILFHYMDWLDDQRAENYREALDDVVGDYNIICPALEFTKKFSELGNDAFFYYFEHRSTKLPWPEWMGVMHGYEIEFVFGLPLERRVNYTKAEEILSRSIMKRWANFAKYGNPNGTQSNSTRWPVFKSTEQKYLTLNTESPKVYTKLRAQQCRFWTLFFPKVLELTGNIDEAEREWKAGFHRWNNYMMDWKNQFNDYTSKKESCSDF
experimental details: Inhibition of horse serum BChE
test conditions: read-out: IC50
Binary call on IC50 with cut-off 90 nM: strictly below means y, and equality or higher means n.

Use the examples below as a reference point.
- molecule: "N=c1c2ccccc2nc2n1CCCCCC2"
  group label: "n"
- molecule: "c1ccc2/c(=N/CCCCCCCC/N=c3/c4ccccc4nc4n3CCCC4)n3c(nc2c1)CCCC3"
  group label: "y"

Asked: In the record for `c1ccc2/c(=N/CCCCCCCC/N=c3/c4ccccc4nc4n3CCCCCC4)n3c(nc2c1)CCCCCC3` , is IC50 less than 90 nM?
Given back: y

Asked: In the record for `CC(=O)/N=c1/c2ccccc2nc2n1CCC2` , is IC50 less than 90 nM?
Given back: n

Asked: In the record for `CCCC/N=c1/c2ccc(Cl)cc2nc2n1CCC2` , is IC50 less than 90 nM?
Given back: n

Asked: In the record for `c1ccc2/c(=N/CCCCCCC/N=c3\c4ccccc4nc4n3CCCCCC4)n3c(nc2c1)CCCCCC3` , is IC50 less than 90 nM?
Given back: y

Asked: In the record for `c1ccc2/c(=N/CCCCCCCC/N=c3/c4ccccc4nc4n3CCCCC4)n3c(nc2c1)CCCCC3` , is IC50 less than 90 nM?
Given back: y

###

Consider compounds characterized by their pIC50 with Acetylcholinesterase (Electrophorus electricus, UniProt O42275).
Sequence (O42275 whole entry): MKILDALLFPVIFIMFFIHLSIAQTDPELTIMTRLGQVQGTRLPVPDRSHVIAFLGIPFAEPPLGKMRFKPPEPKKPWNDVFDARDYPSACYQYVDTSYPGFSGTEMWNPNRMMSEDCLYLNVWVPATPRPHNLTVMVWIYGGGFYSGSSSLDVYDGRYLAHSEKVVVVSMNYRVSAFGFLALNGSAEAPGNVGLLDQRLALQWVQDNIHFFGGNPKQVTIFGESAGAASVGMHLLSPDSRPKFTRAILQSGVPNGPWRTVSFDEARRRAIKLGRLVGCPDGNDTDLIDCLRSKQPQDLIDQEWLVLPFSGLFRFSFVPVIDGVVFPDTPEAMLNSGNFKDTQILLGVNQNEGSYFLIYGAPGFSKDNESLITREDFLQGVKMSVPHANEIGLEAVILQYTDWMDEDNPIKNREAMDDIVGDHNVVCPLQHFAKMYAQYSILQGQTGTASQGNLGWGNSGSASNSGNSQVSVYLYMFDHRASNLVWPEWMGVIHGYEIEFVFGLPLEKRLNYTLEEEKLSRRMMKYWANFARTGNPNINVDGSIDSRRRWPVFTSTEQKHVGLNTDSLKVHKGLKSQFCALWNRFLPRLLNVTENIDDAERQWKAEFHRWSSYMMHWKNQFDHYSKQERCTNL
The scale used: pIC50 is minus the common logarithm of the concentration in molar units.

Here's what some known entries look like.
- compound: "c1ccc2/c(=N/CCCCCCC/N=c3\\c4ccccc4nc4n3CCCCC4)n3c(nc2c1)CCCCC3"
  pIC50: 7.40
- compound: "Clc1ccc2c(c1)N=C1CCCN1C2NCCCCCCCC/N=c1/c2ccc(Cl)cc2nc2n1CCC2 (stereo not given)"
  pIC50: 7.30

Asked: For the record `CC(=O)/N=c1/c2ccccc2nc2n1CCC2` , what value of pIC50 is listed for Acetylcholinesterase (Electrophorus electricus, UniProt O42275)?
Given back: 3.94

Asked: For the record `N=c1c2ccccc2nc2n1CCC2` , what value of pIC50 is listed for Acetylcholinesterase (Electrophorus electricus, UniProt O42275)?
Given back: 4.88

Asked: For the record `c1ccc2/c(=N/CCCCCCC/N=c3\c4ccccc4nc4n3CCCCCC4)n3c(nc2c1)CCCCCC3` , what value of pIC50 is listed for Acetylcholinesterase (Electrophorus electricus, UniProt O42275)?
Given back: 7.19

###

Consider molecules characterized by their IC50 with Acetylcholinesterase (Electrophorus electricus, UniProt O42275).
Report the figure in µM without appending any unit label.

Here's what some known entries look like.
- smiles text: "Clc1ccc2/c(=N/CCCCCCC/N=c3\\c4ccc(Cl)cc4nc4n3CCC4)n3c(nc2c1)CCC3"
  IC50 [µM]: 0.059
- smiles text: "c1ccc2/c(=N/CCCCCCCC/N=c3/c4ccccc4nc4n3CCCC4)n3c(nc2c1)CCCC3"
  IC50 [µM]: 0.037
- smiles text: "N=c1c2ccccc2nc2n1CCCCCC2"
  IC50 [µM]: 14.6
- smiles text: "c1ccc2/c(=N/CCCCCCCC/N=c3/c4ccccc4nc4n3CCCCC4)n3c(nc2c1)CCCCC3"
  IC50 [µM]: 1.28
- smiles text: "c1ccc2/c(=N/CCCCCCC/N=c3\\c4ccccc4nc4n3CCCC4)n3c(nc2c1)CCCC3"
  IC50 [µM]: 0.077
- smiles text: "c1ccc2/c(=N/CCCCCCCC/N=c3/c4ccccc4nc4n3CCC4)n3c(nc2c1)CCC3"
  IC50 [µM]: 0.058
- smiles text: "CCCC/N=c1/c2ccccc2nc2n1CCC2"
  IC50 [µM]: 9.5
- smiles text: "c1ccc2/c(=N/CCCCCCC/N=c3\\c4ccccc4nc4n3CCC4)n3c(nc2c1)CCC3"
  IC50 [µM]: 0.079

# input for lookup
Asked: For the record `c1ccc2/c(=N/CCCCCCCC/N=c3/c4ccccc4nc4n3CCCCCC4)n3c(nc2c1)CCCCCC3` , what value of IC50 is listed for Acetylcholinesterase (Electrophorus electricus, UniProt O42275)?
Given back: 14.4
